Origin of values: paper PMC6821926

Molecular target: A. baumannii dihydrofolate reductase (AbDHFR) (Acinetobacter baumannii, UniProt A0A098SJI9)
Construct: gene folA; AbDHFR expressed from pET15b in E. coli BL21(DE3)
Sequence (A0A098SJI9 entry or part of it): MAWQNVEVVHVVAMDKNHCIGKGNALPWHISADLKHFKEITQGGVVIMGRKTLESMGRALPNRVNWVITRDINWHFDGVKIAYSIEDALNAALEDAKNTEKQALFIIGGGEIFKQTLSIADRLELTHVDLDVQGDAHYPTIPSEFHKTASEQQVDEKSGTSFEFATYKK
Assay: DHFR activity assay (A340) in lysate of E. coli BL21(DE3) overexpressing AbDHFR; also E. coli surrogate growth and DHFR activity in treated A. baumannii
Format: biochemical
Value type: IC50 (nM)
Reply with just the number (in nM).

Lookup: Quick check: IC50 of "COc1ccc(OC)c(NCc2ccc3nc(N)nc(N)c3c2Cl)c1" ?
Found: 8.5

----------
Biological target: human DHFR (hDHFR) (Homo sapiens)
Construct: hDHFR (from pL0035) expressed from pET15b in E. coli BL21(DE3)
Sequence (P00374 whole entry): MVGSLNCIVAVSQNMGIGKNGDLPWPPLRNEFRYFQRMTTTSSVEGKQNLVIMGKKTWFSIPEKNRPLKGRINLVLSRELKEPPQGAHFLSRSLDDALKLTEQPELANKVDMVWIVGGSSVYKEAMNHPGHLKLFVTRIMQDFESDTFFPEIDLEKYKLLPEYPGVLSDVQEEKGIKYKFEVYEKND
Test: DHFR activity assay (A340) in lysate of E. coli BL21(DE3) overexpressing hDHFR
Value type: IC50

Lookup: Quick check: IC50 of COc1ccc(OC)c(NCc2ccc3nc(N)nc(N)c3c2Cl)c1 [MMV675968] ?
Found: 492 nM
